These entries and their values trace back to patent US12365687B2.

Target: α2β2γ1 GABAA receptor subtype (Homo sapiens (Human), UniProt P47869+Q8N1C3)
Assay: Two-electrode voltage clamp electrophysiology in Xenopus oocytes expressing GABAA receptors (modulation of GABA EC20 current)
Assay type: cell-based
Conditions: % modulation of GABA EC20 = 100*(Fold increase-1); α2β2γ1 oocytes; compound at approx. 30-fold Ki
Label y when Efficacy (GABA)% >= 80%; otherwise n.

Check out these entries, answers already filled in.
> print(dat)
                                   molecule  category.label
1  C[C@@H]1N=C(c2c(F)cccc2F)c2c(ccc(Cl)c2Cl)-n2nc(C(=O)N3CC4(CCCO4)C3)nc21 [Example 108]               n
2  Cc1cnc2n1-c1ccc(Br)c(Cl)c1C(c1c(F)cccc1F)=N[C@H]2C [Example 116]               n
3  CNC(=O)Nc1nc2n(n1)-c1ccc(C(F)(F)F)c(Cl)c1C(c1c(F)cccc1F)=N[C@H]2C [Example 129]               n
4  COC1CN(C(=O)c2nc3n(n2)-c2ccc(C(F)(F)F)c(Cl)c2C(c2c(F)cccc2F)=N[C@H]3C)C1 [Example 23]               n
5  CCNC(=O)c1nc2n(n1)-c1ccc(Cl)c(Cl)c1C(c1c(F)cccc1F)=N[C@H]2C [Example 64]               n

Does C[C@@H]1N=C(c2c(F)cccc2F)c2c(ccc(Cl)c2Cl)-n2nc(C(=O)N3CC4(CCO4)C3)nc21 [Example 94] have a reported Efficacy (GABA)% of at least 80%?
n

Determine whether measured Efficacy (GABA)% meets or exceeds 80% for C[C@@H]1N=C(c2c(F)cccc2F)c2c(ccc(Cl)c2Cl)-n2nc(C(=O)NC3(C#N)CC3)nc21 [Example 61]
y

Assess whether reported Efficacy (GABA)% for O=C(c1nc2n(n1)-c1ccc(Cl)c(Cl)c1C(c1c(F)cccc1F)=NC2)N1CCC1 [Example 8] sits at 80% or higher.
y

Check if Efficacy (GABA)% >= 80% (inclusive). Item: C[C@@H]1N=C(c2c(F)cccc2F)c2c(ccc(C(F)(F)F)c2Cl)-n2nc(NC(=O)N3CC(F)C3)nc21 [Example 128]
y

---

# γ2/γ1 Selectivity Ratio per entry
Target: human GABAA α1β3γ2 receptor (Homo sapiens (Human), UniProt P14867+P18507)
Assay: Radioligand binding assay for γ2-containing GABAA subtypes, [3H]Flumazenil competition (α1β3γ2)
Details: Ki α1β3γ2 (nM)/Ki α2β2γ1 (nM)

Use the examples below as a reference point.
> print(dat)
                           smiles.structure                           subject.of.test                 endpoint    val
1  C[C@@H]1N=C(c2ncccc2F)c2c(ccc(Br)c2Cl)-n2nc(C(=O)N3CCC3)nc21  human GABAA α1β3γ2 receptor (Homo sapiens (Human), UniProt P14867+P18507)  γ2/γ1 Selectivity Ratio   70.2
2  C[C@H](O)CNC(=O)c1nc2n(n1)-c1ccc(Cl)c(Cl)c1C(c1c(F)cccc1F)=N[C@H]2C  human GABAA α1β3γ2 receptor (Homo sapiens (Human), UniProt P14867+P18507)  γ2/γ1 Selectivity Ratio  142.6
3  Cc1cnc2n1-c1ccc(Cl)c(Cl)c1C(c1c(F)cccc1F)=N[C@H]2C  human GABAA α1β3γ2 receptor (Homo sapiens (Human), UniProt P14867+P18507)  γ2/γ1 Selectivity Ratio   45.6
4  Cc1nc2n(n1)-c1ccc(C(F)(F)F)c(Cl)c1C(c1ncccc1F)=N[C@H]2C  human GABAA α1β3γ2 receptor (Homo sapiens (Human), UniProt P14867+P18507)  γ2/γ1 Selectivity Ratio   77.6
5  Cc1cnc2n1-c1ccc(C(F)(F)F)c(Cl)c1C(c1c(F)cccc1F)=N[C@H]2C  human GABAA α1β3γ2 receptor (Homo sapiens (Human), UniProt P14867+P18507)  γ2/γ1 Selectivity Ratio   67.4

Sure, the documented γ2/γ1 Selectivity Ratio for `C[C@@H]1N=C(c2c(F)cccc2F)c2c(ccc(C(F)(F)F)c2Cl)-n2nc(NC(=O)NC3COC3)nc21` is 259.0

Reported γ2/γ1 Selectivity Ratio of `C[C@@H]1N=C(c2c(F)cccc2F)c2c(ccc(Cl)c2Cl)-n2nc(N3CC(O)C3)nc21` : 39.7

For record `C[C@@H]1N=C(c2ncccc2F)c2c(ccc(C(F)(F)F)c2Cl)-n2cc(C(=O)NCC(C)(C)O)nc21` the listed γ2/γ1 Selectivity Ratio is 195.6

What the record says about `[2H]C([2H])([2H])N(C(=O)c1nc2n(n1)-c1ccc(Cl)c(Cl)c1C(c1c(F)cccc1F)=N[C@H]2C)C([2H])([2H])[2H]` : γ2/γ1 Selectivity Ratio is 81.5

Sample `CC1CN(C(=O)c2nc3n(n2)-c2ccc(Cl)c(Cl)c2C(c2ncccc2F)=N[C@H]3C)C1` ; γ2/γ1 Selectivity Ratio observed: 59.7
